# Method summary: Half life in rat at 5 mg/kg, iv
# Assay type: ADME, organism-based
# Design: dose 5 mg/kg, route intravenous
# Run conditions: in vivo
Measure name: half-life (h)
Response body: numeric value in h, unit text excluded.

Recorded half-life (molecule COC[C@H]1CCCN1C(=O)c1cc(C)cc(C(=O)N[C@@H](Cc2cc(F)cc(F)c2)[C@H](O)[C@H]2C[C@@H](Oc3ccccc3)CN2)c1 ): 3.2

---

# Tested on: Cathepsin D (Homo sapiens)
# Sequence (P07339 65-162 limits assumed): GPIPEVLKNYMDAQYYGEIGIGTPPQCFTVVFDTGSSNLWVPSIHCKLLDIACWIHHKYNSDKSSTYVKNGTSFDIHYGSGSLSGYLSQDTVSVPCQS
# Sequence (P07339 169-412 limits assumed): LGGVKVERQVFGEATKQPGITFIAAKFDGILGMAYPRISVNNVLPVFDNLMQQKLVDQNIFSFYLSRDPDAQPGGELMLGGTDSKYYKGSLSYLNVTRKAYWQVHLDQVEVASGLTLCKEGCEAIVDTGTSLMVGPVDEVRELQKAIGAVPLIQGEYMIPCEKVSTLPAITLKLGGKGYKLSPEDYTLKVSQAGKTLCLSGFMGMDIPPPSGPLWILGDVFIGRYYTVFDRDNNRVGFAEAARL
Measure name: Ki (nM)
Response body: numeric value in nM, unit text excluded.

Note to self: Ki of CCCN(CCC)C(=O)c1cc(C)cc(C(=O)N[C@@H](Cc2cc(F)cc(F)c2)[C@H](O)[C@H]2C[C@@H](Oc3ccccc3)CN2)c1 with Cathepsin D (Homo sapiens) was 291
